- Tested on: NCI-H1876 complex spheroid growth, % test/control
- Protocol summary: Anticancer human tumor NCI-H1876 cell line growth inhibition [Asc];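 also: compound exposure lasted 7 days starting three days after seeding; 100% = DMSO vehicle control wells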
- Condition: second compound 0.00316 µM; first compound 1 µM; hits give low values
Attribute: viability, T/C

{"Compound": "CCN1CCN(Cc2ccc(Nc3ncc(F)c(-c4cc(F)c5nc(C)n(C(C)C)c5c4)n3)nc2)CC1 + CNC(C)C(=O)NC1CN(S(=O)(=O)c2cccc(S(=O)(=O)N3CCC4CCC(C(=O)NC(c5ccccc5)c5ccccc5)N4C(=O)C(NC(=O)C(C)NC)C3)c2)CCC2CCC(C(=O)NC(c3ccccc3)c3ccccc3)N2C1=O", "Measured target": "NCI-H1876 complex spheroid growth, % test/control", "Reading unit": "%", "viability, T/C": 128}
{"Compound": "O=C(c1cc(Cc2n[nH]c(=O)c3ccccc23)ccc1F)N1CCN(C(=O)C2CC2)CC1 + CNC(C)C(=O)NC1CN(S(=O)(=O)c2cccc(S(=O)(=O)N3CCC4CCC(C(=O)NC(c5ccccc5)c5ccccc5)N4C(=O)C(NC(=O)C(C)NC)C3)c2)CCC2CCC(C(=O)NC(c3ccccc3)c3ccccc3)N2C1=O", "Measured target": "NCI-H1876 complex spheroid growth, % test/control", "Reading unit": "%", "viability, T/C": 66.5}
{"Compound": "C=C(F)C(=O)N1CCN(c2nc(OCC3CCCN3C)nc3c2CCN(c2cccc4cccc(Cl)c24)C3)CC1CC#N (configuration not stated) + CNC(C)C(=O)NC1CN(S(=O)(=O)c2cccc(S(=O)(=O)N3CCC4CCC(C(=O)NC(c5ccccc5)c5ccccc5)N4C(=O)C(NC(=O)C(C)NC)C3)c2)CCC2CCC(C(=O)NC(c3ccccc3)c3ccccc3)N2C1=O", "Measured target": "NCI-H1876 complex spheroid growth, % test/control", "Reading unit": "%", "viability, T/C": 89.3}
{"Compound": "COc1c(OCCCN2CCOCC2)ccc2c3n(c(=NC(=O)c4cnc(N)nc4)nc12)CCN3 + CNC(C)C(=O)NC1CN(S(=O)(=O)c2cccc(S(=O)(=O)N3CCC4CCC(C(=O)NC(c5ccccc5)c5ccccc5)N4C(=O)C(NC(=O)C(C)NC)C3)c2)CCC2CCC(C(=O)NC(c3ccccc3)c3ccccc3)N2C1=O", "Measured target": "NCI-H1876 complex spheroid growth, % test/control", "Reading unit": "%", "viability, T/C": 49.2}
{"Compound": "C#Cc1c(F)ccc2cc(O)cc(-c3ncc4c(N5CC6CCC(C5)N6)nc(OCC56CCCN5CC(F)C6)nc4c3F)c12 (configuration not stated) + CNC(C)C(=O)NC1CN(S(=O)(=O)c2cccc(S(=O)(=O)N3CCC4CCC(C(=O)NC(c5ccccc5)c5ccccc5)N4C(=O)C(NC(=O)C(C)NC)C3)c2)CCC2CCC(C(=O)NC(c3ccccc3)c3ccccc3)N2C1=O", "Measured target": "NCI-H1876 complex spheroid growth, % test/control", "Reading unit": "%", "viability, T/C": 90.3}
{"Compound": "O=C(c1ccc(F)c(F)c1Nc1ccc(I)cc1F)N1CC(O)([C@@H]2CCCCN2)C1 + CNC(C)C(=O)NC1CN(S(=O)(=O)c2cccc(S(=O)(=O)N3CCC4CCC(C(=O)NC(c5ccccc5)c5ccccc5)N4C(=O)C(NC(=O)C(C)NC)C3)c2)CCC2CCC(C(=O)NC(c3ccccc3)c3ccccc3)N2C1=O", "Measured target": "NCI-H1876 complex spheroid growth, % test/control", "Reading unit": "%", "viability, T/C": 70.6}
{"Compound": "C=CC(=O)N1CCN(c2nc(=O)n(-c3c(C)ccnc3C(C)C)c3nc(-c4c(O)cccc4F)c(F)cc23)C(C)C1 (configuration not stated) + CNC(C)C(=O)NC1CN(S(=O)(=O)c2cccc(S(=O)(=O)N3CCC4CCC(C(=O)NC(c5ccccc5)c5ccccc5)N4C(=O)C(NC(=O)C(C)NC)C3)c2)CCC2CCC(C(=O)NC(c3ccccc3)c3ccccc3)N2C1=O", "Measured target": "NCI-H1876 complex spheroid growth, % test/control", "Reading unit": "%", "viability, T/C": 94.9}

All figures here come from PubChem BioAssay AID1963441.
